Please provide measured log10(ED50) for the entries that follow.
assay explanation: In vivo antagonist activity at Histamine H3 receptor in Wistar rat assessed as reduction in imetit-induced water intake pretreated with compound for 30 mins followed by imetit administration and measured after 30 mins by dipsogenia test
Assay type: functional
condition summary: 1 h, time 60 min
Values are log10 of ED50 in mg/kg.

Q: Retrieve log10(ED50) measured for C[C@@H]1CCCN1CCCOc1ccc2c(c1)CC[C@H]1[C@H]3[C@@H]4C[C@@H]4C(=O)N[C@@]3(C)CC[C@H]21 and print it.
A: -0.48

Q: Name the recorded log10(ED50) of the item C[C@@H]1CCCN1CCCOc1ccc2c(c1)CC[C@H]1[C@@H]3[C@@H]4C[C@@H]4C(=O)N[C@@]3(C)CC[C@H]21 in your answer.
A: 0.18

Q: Consider the compound C[C@@H]1CCCN1CCCOc1ccc2c(c1)CC[C@H]1[C@@H]3[C@@H]4C[C@@H]4C(=O)N(C)[C@@]3(C)CC[C@H]21 . State its measured log10(ED50).
A: 0.15

Q: Return log10(ED50) (reported value) for this compound: C[C@@H]1CCCN1CCCOc1ccc2c(c1)CC[C@H]1C3=CCC(=O)N[C@@]3(C)CC[C@H]21
A: -0.92

Q: Output measured log10(ED50) for this item: C[C@@H]1CCCN1CCCOc1ccc2c(c1)CC[C@H]1[C@@H]3[C@H](C#N)CC(=O)N(C)[C@@]3(C)CC[C@H]21
A: -0.11
